- target: SST5 (Homo sapiens, UniProt P35346)
- Sequence (P35346 whole entry): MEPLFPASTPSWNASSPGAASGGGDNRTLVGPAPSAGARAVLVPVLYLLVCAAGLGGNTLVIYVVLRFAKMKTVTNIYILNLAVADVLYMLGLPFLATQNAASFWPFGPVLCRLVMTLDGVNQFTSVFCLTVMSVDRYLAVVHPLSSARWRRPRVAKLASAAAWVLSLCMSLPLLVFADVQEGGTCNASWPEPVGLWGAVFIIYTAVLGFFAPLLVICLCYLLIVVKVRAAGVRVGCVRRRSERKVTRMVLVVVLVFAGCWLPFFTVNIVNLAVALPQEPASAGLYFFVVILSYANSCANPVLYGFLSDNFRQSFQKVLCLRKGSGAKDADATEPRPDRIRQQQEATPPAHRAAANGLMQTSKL
- protocolSummary: Hit Hunter cAMP XS+ assay, SST5 activation via Gi (reduction of forskolin-stimulated cAMP)
- Assay type: cell-based
- conditionSummary: selectivity for SST5 over SST2
*1 amine or outer side, *2 acyl side, *3 side chain or, on linkers, in order; H or OH if unused. Where a SMILES comes first, the peptide text is derived from it. Side-chain parts run from the residue outwards. [ ]: non-standard residue; d: D form. The star is where a group is joined. Ala(piperidin-4-yl) = O=C([C@H](CC1CCN([*:3])CC1)N[*:1])[*:2]; Ala(piperazin-1-yl) = N[C@@H](CN1CCNCC1)C(=O)O; Morpholine(3S-CO) = O=C(O)[C@@H]1COCCN1; Ethylenediamine = C(CN[*:2])N[*:1]; d(hPhe) = N[C@H](CCc1ccccc1)C(=O)O; Hyp = O=C(O)[C@@H]1C[C@@H](O)CN1; hPhe = N[C@@H](CCc1ccccc1)C(=O)O; 3Pal = N[C@@H](Cc1cccnc1)C(=O)O; Tic = O=C(O)[C@@H]1Cc2ccccc2CN1; CO = O=C([*:1])[*:2]; Bn = c1ccc(C*)cc1; X4 = C1CC(C*)C1
Measured SST5/2 Selectivity, listed per entry.
// no unit, no text: just the number

O=C1N[C@@H](Cc2ccc(OCc3ccccc3)cc2)C(=O)N2Cc3ccccc3C[C@H]2C(=O)N2CCOC[C@H]2C(=O)N[C@H](CCc2ccccc2)C(=O)N[C@H](Cc2c[nH]c3ccccc23)C(=O)N[C@H]1CN1CCNCC1 [Example 61] (cyclo([Tic][Morpholine(3S-CO)][d(hPhe)][dW][Ala(piperazin-1-yl)]Y(Bn))) ... 291.4

Inquiry: Fill in the blank: the reported SST5/2 Selectivity of NCCNC(=O)O[C@@H]1C[C@H]2C(=O)N[C@@H](CCc3ccccc3)C(=O)N[C@H](Cc3c[nH]c4ccccc34)C(=O)N[C@@H](CC3CCNCC3)C(=O)N[C@@H](Cc3ccc(OCC4CCC4)cc3)C(=O)N[C@@H](Cc3cccnc3)C(=O)N2C1 [Example 50] (cyclo([3Pal][Hyp]([CO-Ethylenediamine])[hPhe][dW][Ala(piperidin-4-yl)]Y(X4))) is ____.
Reply text: 41.1

====

- target: SST5 (Homo sapiens)
- protocolSummary: Hit Hunter cAMP XS+ assay, SST5 activation via Gi (reduction of forskolin-stimulated cAMP)
- Assay type: cell-based
- conditionSummary: reduction of forskolin-stimulated cAMP; 4-parameter logistic fit; read-out: SST5 pEC50 (converted)
*1 amine or outer side, *2 acyl side, *3 side chain or, on linkers, in order; H or OH if unused. Where a SMILES comes first, the peptide text is derived from it. Side-chain parts run from the residue outwards. [ ]: non-standard residue; d: D form. The star is where a group is joined. Ala(piperidin-4-yl) = O=C([C@H](CC1CCN([*:3])CC1)N[*:1])[*:2]; Tyr(Ph) = N[C@@H](Cc1ccc(Oc2ccccc2)cc1)C(=O)O; Ethylenediamine = C(CN[*:2])N[*:1]; Hyp = O=C(O)[C@@H]1C[C@@H](O)CN1; hPhe = N[C@@H](CCc1ccccc1)C(=O)O; 3Pal = N[C@@H](Cc1cccnc1)C(=O)O; Phg = N[C@H](C(=O)O)c1ccccc1; CO = O=C([*:1])[*:2]; Bn = c1ccc(C*)cc1
Measured EC50, listed per entry.
Provide only the numeric value, understood in nM.

NCCNC(=O)O[C@@H]1C[C@H]2C(=O)N[C@@H](c3ccccc3)C(=O)N[C@H](Cc3c[nH]c4ccccc34)C(=O)N[C@@H](CC3CCNCC3)C(=O)N[C@@H](Cc3ccc(OCc4ccccc4)cc3)C(=O)N[C@@H](Cc3cccnc3)C(=O)N2C1 [Example 11] (cyclo([3Pal][Hyp]([CO-Ethylenediamine])[Phg][dW][Ala(piperidin-4-yl)]Y(Bn))) ... 3.98

Inquiry: Fill in the blank: the reported EC50 of NCCNC(=O)O[C@@H]1C[C@H]2C(=O)N[C@@H](CCc3ccccc3)C(=O)N[C@H](Cc3c[nH]c4ccccc34)C(=O)N[C@@H](CC3CCNCC3)C(=O)N[C@@H](Cc3ccc(Oc4ccccc4)cc3)C(=O)N[C@@H](Cc3cccnc3)C(=O)N2C1 [Example 67] (cyclo([3Pal][Hyp]([CO-Ethylenediamine])[hPhe][dW][Ala(piperidin-4-yl)][Tyr(Ph)])) is ____.
Reply text: 15.8
